# Experiment description: Delivery vehicle size and polydispersity by dynamic light scattering
# Type: physicochemical
# Applied conditions: DLS in PBS; peptoid:DSPC:Cholesterol:DMG-PEG2000 weight ratio 20:1.79:7.16:1.84, mRNA
Starred links: 1 amine or outer side, 2 acyl side, 3 side chain; linkers in the order of their positions; H or OH if unused. Non-standard residues stand in square brackets, D forms with d. Residues, ends and D or L forms follow the SMILES beside them. *: point of attachment. N(3-lauroyloxypropyl)Gly = CCCCCCCCCCCC(=O)OCCCNCC(=O)O; Gly(N-(CH2)3O-octanoyl) = CCCCCCCC(=O)OCCCNCC(=O)O; Gly(N-3-morpholinopropyl) = O=C(O)CNCCCN1CCOCC1; N(2-ethylhexyl)Gly = CCCCC(CC)CNCC(=O)O; X1 = CCCCC(CC)CSSCCN(CC(=O)[*:2])[*:1]; For = O=C*
Items are presented alongside their recorded PDI.

Q: Fill in PDI for record CCCCCCCC(=O)OCCCN(C=O)CC(=O)N(CCCOC(=O)CCCCCCC)CC(=O)N(CCSSCC(CC)CCCC)CC(=O)N(CCCN1CCOCC1)CC(=O)N(CCSSCC(CC)CCCC)CC(=O)N(CCCOC(=O)CCCCCCC)CC(=O)N(CCCOC(=O)CCCCCCC)CC(N)=O (centres unmarked) [Compound 133] (For-[Gly(N-(CH2)3O-octanoyl)][Gly(N-(CH2)3O-octanoyl)][X1][Gly(N-3-morpholinopropyl)][X1][Gly(N-(CH2)3O-octanoyl)][Gly(N-(CH2)3O-octanoyl)]-NH2)
Result: 0.083

Now turn to the next molecule.
Q: Fill in PDI for record CCCCCCCCCCCC(=O)OCCCN(CC(=O)N(CC(=O)N(CCCN1CCOCC1)CC(=O)N(CC(=O)N(CCCOC(=O)CCCCCCCCCCC)CC(=O)N(CC(N)=O)CC(CC)CCCC)CC(CC)CCCC)CC(CC)CCCC)C(=O)CN(C=O)CC(CC)CCCC (centres unmarked) [Compound 80] (For-[N(2-ethylhexyl)Gly][N(3-lauroyloxypropyl)Gly][N(2-ethylhexyl)Gly][Gly(N-3-morpholinopropyl)][N(2-ethylhexyl)Gly][N(3-lauroyloxypropyl)Gly][N(2-ethylhexyl)Gly]-NH2)
Result: 0.109

====

# Tested on: mRNA
# Experiment description: mRNA encapsulation (modified Quant-iT RiboGreen assay)
# Assay type: physicochemical
# Applied conditions: mRNA; formulation recipe D22
Non-standard residues stand in square brackets, D forms with d. Residues, ends and D or L forms follow the SMILES beside them. *: point of attachment. N(3-lauroyloxypropyl)Gly = CCCCCCCCCCCC(=O)OCCCNCC(=O)O; Gly(N-3-morpholinopropyl) = O=C(O)CNCCCN1CCOCC1; N(2-ethylhexyl)Gly = CCCCC(CC)CNCC(=O)O; For = O=C*
Readout type: % Encapsulation (%)
Answer format: numeric, % implied, no suffix.

Q: Fill in % Encapsulation for record CCCCCCCCCCCC(=O)OCCCN(CC(=O)N(CC(=O)N(CCCN1CCOCC1)CC(=O)N(CC(=O)N(CCCOC(=O)CCCCCCCCCCC)CC(=O)N(CC(N)=O)CC(CC)CCCC)CC(CC)CCCC)CC(CC)CCCC)C(=O)CN(C=O)CC(CC)CCCC (stereo not shown) [Compound 80] (For-[N(2-ethylhexyl)Gly][N(3-lauroyloxypropyl)Gly][N(2-ethylhexyl)Gly][Gly(N-3-morpholinopropyl)][N(2-ethylhexyl)Gly][N(3-lauroyloxypropyl)Gly][N(2-ethylhexyl)Gly]-NH2)
Result: 65.7
